Entry source: patent US12599672B2

TESTED_ON: KRAS G12D (Homo sapiens, UniProt P01116, G12D)
Construct: AsPc-1-KRAS (G12D)-HiBit-KI cell (Pharmaron); host or cells: AsPc-1-KRAS (G12D)-HiBit-KI cells (HiBiT knock-in at the endogenous KRAS locus)
Sequence (P01116 1-188 isoform P01116-2 G12D): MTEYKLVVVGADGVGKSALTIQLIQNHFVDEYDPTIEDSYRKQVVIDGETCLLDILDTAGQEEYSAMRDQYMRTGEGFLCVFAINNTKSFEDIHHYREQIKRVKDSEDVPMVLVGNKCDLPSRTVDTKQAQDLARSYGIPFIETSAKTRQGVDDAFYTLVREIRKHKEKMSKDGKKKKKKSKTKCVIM
ASSAY_TEXT: KRAS G12D HiBit assay
Assay type: cell-based
MEASUREMENT_CONTEXT: AsPc-1-KRAS (G12D)-HiBit-KI cell, compound treatment for 24 hours, absolute DC50; class symbols
# DC50 annotations

Illustrative cases are given below, each with its answer.
>>> reported_result("Cn1c(=O)n(C2CCC(=O)NC2=O)c2cccc(C3CCN(CC4CCN(C(=O)CN5CCN(c6nccc(-c7noc([C@@]8(C)CCCc9sc(N)c(C#N)c98)n7)n6)CC5)CC4)CC3)c21 (stereo partly drawn) [Compound 222]")
"> 300 nM"
>>> reported_result("C#Cc1c(F)ccc2cc(O)cc(-c3ncc4c(N5CCC[C@@](C)(O)C5)nc(OCC5(CN6CCN(CC7CCN(c8ccc9c(c8)n(C)c(=O)n9C8CCC(=O)NC8=O)CC7)CC6)CC5)nc4c3F)c12 (stereo partly drawn) [Compound 14]")
"< 100 nM"
>>> reported_result("CCc1c(F)ccc2cc(O)cc(-c3ncc4c(N5CCC[C@@](C)(O)C5)nc(OC[C@@]56CCCN5C(CN5CCC(OCCCc7ccc8c(c7)n(C)c(=O)n8C7CCC(=O)NC7=O)CC5)CC6)nc4c3F)c12 (stereo partly drawn) [Compound 384]")
"< 100 nM"
>>> reported_result("CCc1c(F)ccc2cc(O)cc(-c3ncc4c(N5CCC[C@@H]5CO)nc(OC[C@@]56CCCN5[C@H](COC(=O)N5CCC7(CC5)CC(N5CCC(c8ccc9c(c8)n(C)c(=O)n9C8CCC(=O)NC8=O)CC5)C7)CC6)nc4c3F)c12 (stereo partly drawn) [Compound 352]")
"< 100 nM"
>>> reported_result("CCc1c(F)ccc2cc(O)cc(-c3ncc4c(N5CCC[C@@](C)(O)C5)nc(OC[C@@]56CCCN5[C@H](COC(=O)N5CC7C(CN8CCC(c9ccc%10c(c9)n(C)c(=O)n%10C9CCC(=O)NC9=O)CC8)C7C5)CC6)nc4c3F)c12 (stereo partly drawn) [Compound 401]")
"< 100 nM"

Give recorded DC50. CCc1cccc2cc(O)cc(-c3ncc4c(N5CCC[C@@](C)(O)C5)nc(OC[C@@]56CCCN5[C@H](COC(=O)N5CCC(CN7CCC(c8ccc9c(c8)n(C)c(=O)n9C8CCC(=O)NC8=O)CC7)CC5)CC6)nc4c3F)c12 (stereo partly drawn) [Compound 145] < 100 nM

Using the record for C[C@H]1CN(CC(=O)N2CCC(CN3CCC(c4ccc5c(c4)n(C)c(=O)n5C4CCC(=O)NC4=O)CC3)CC2)CCCN1c1nccc(-c2noc([C@@]3(C)CCCc4sc(N)c(C#N)c43)n2)n1 (stereo partly drawn) [Compound 210] , state its measured DC50. > 300 nM

Let me know recorded DC50 for CCc1c(F)ccc2cc(O)cc(-c3ncc4c(N5CCCC(F)(F)C5)nc(OC[C@@]56CCCN5[C@H](COC(=O)N5CC7(CC(N8CCC(c9ccc%10c(c9)n(C)c(=O)n%10C9CCC(=O)NC9=O)CC8)C7)C5)CC6)nc4c3F)c12 (stereo partly drawn) [Compound 469] , thanks. < 100 nM

Return DC50 (reported value) for this compound: CCc1c(F)ccc2cc(O)cc(-c3ncc4c(N5CCC[C@@](C)(O)C5)nc(OC[C@]56CCCN5[C@@H](COC(=O)N5CCC(CN7CCC(c8ccc9c(c8)n(C)c(=O)n9C8CCC(=O)NC8=O)CC7)CC5)CC6)nc4c3F)c12 (stereo partly drawn) [Compound 120] < 100 nM
